tested on: TK-10 renal; experiment: NCI tumour cell line growth inhibition, 48 h; in the data active means GI50 below about 0.43 µM; inactive means the rest
Lab note: assign the record to one of active, inactive

Task: Query: recorded result category for `CC[C@H](C)[C@H](NC(=O)C12CC(NC(C)=O)(C1)C2)C(=O)N(C)[C@H](C[C@@H](OC(C)=O)c1nc(C(=O)N[C@@H](Cc2ccccc2)C[C@H](C)C(=O)OC)cs1)C(C)C` in this test
Output: inactive

Task: GET /call?item= `C/C(=N\Nc1cccc(Cl)n1)c1ccccn1` returns the recorded outcome of this test.
Output: inactive

Task: Tell me the assay call for `CCOC(=O)C(Cc1ccc(OC)cc1)C(=O)OCC` please.
Output: inactive

Task: Test call for this molecule, please: `COc1ccc(-c2cncn2-c2cc(OC)c(OC)c(OC)c2)cc1F`
Output: inactive

Task: Just curious, what result did `CCN(CC)c1ccc2nc3c4ccccc4c(=NC(=O)c4ccccc4-c4c5ccc(N(CC)CC)cc5[o+]c5cc(N(CC)CC)ccc45)cc-3oc2c1` get here?
Output: inactive

Task: Would you mind telling me which call this test gave CCOC(=O)CNC(=O)C(CSC(=O)N(C)O)NC(=O)CCC(N)C(=O)O (stereo unspecified) ?
Output: inactive

Task: Short answer needed: outcome of this test for `COc1cc(/C=C/C(=O)c2ccc(Nc3nc(Nc4ccccc4)nc(Nc4ccc(Cl)cc4)n3)cc2)cc(OC)c1OC` ?
Output: inactive

Task: Tell me the recorded outcome of this test for `CCC[CH2][Sn]1([CH2]CCC)[O]C(=O)c2cc(C)ccc2[O]1` .
Output: active

Task: Can you look up the reported call for CC(=O)OCC(=O)C1(O)C(C)CC2C3C=C(C)C4=Cc5c(cnn5-c5ccccc5)CC4(C)C3C(O)CC21C (stereo unspecified) for me?
Output: inactive

Task: Outcome logged for `COc1cnc2c(c1)C(=O)c1c-2n(CCCN2CCN(CCO)CC2)c(=O)c2cc([N+](=O)[O-])ccc12` in this assay:
Output: inactive

Task: Assay result, entry `O=C(/C=C/c1cccc(B(O)O)c1)c1cccc(B(O)O)c1` — outcome?
Output: inactive

###

test system: HOP-62 NSCLC; experiment: NCI tumour cell line growth inhibition, 48 h
readout.type: TGI (µM)
Give the value in µM but do not write µM after it.

Task: Determine its reported TGI: `COc1cnc2c(c1)C(=O)c1c-2n(CCCN2CCN(CCO)CC2)c(=O)c2cc([N+](=O)[O-])ccc12`
Output: 19.6

Task: Supply TGI value. Item: `COc1ccc(/C(Cl)=C/c2ccc(Cl)c(Cl)c2)cc1`
Output: 79

###

test system: SF-295 CNS; assay: NCI tumour cell line growth inhibition, 48 h; in the data active = GI50 below about 0.43 µM; inactive = the rest
Give one outcome, nothing more. List: active, inactive

Task: Which result was noted for this compound in the test: `Cc1c(N2C(=O)/C(=C\c3ccc(N(C)C)cc3)N=C2c2ccccc2)c(=O)n(-c2ccccc2)n1C`
Output: inactive

Task: Record request — test call for `CC[C@@]1(OC(=O)CN)C(=O)OCc2c1cc1n(c2=O)Cc2cc3c(N)c4c(cc3nc2-1)OCO4`
Output: active

Task: // return assay outcome for `N#CC(C#N)=Cc1ccc(-c2ccc(-c3nc4ccccc4o3)cc2)o1`
Output: inactive

Task: Hi, do you know how `CC(=O)/C=C/C1=C(c2ccsc2)c2ccccc2CC1` came out in this test?
Output: inactive

Task: Assay result, entry C=C1C(=O)OC2CC3(C)OC3C3OC3C3=CC(OC3=O)C12 (configuration not stated) — outcome?
Output: inactive

Task: Outcome? C[C@@H](Oc1cc(-c2cnn(C3CC4(CCCNC4)C3)c2)cnc1N)c1c(Cl)ccc(F)c1Cl (some centres not stated)
Output: active

Task: Identify the outcome logged in this assay for the compound shown: `CCS/C(Nc1ccccc1)=C(\C#N)C(=O)N/N=C/c1ccc(Cl)cc1Cl`
Output: inactive

###

test system: NCI-H522 lung; test: NCI tumour cell line growth inhibition, 48 h; in the data active = GI50 below about 0.43 µM; inactive = the rest
Where a SMILES comes first, the peptide text is derived from it. The star is where a group is joined. Boc = CC(C)(C)OC(=O)*; OBn = c1ccc(CO*)cc1
Hello, when you answer, please use one of the following outcomes: yes (active), no (inactive)

Task: Name the outcome recorded for CCN1C(=O)N(CC)C2C1NN=c1s/c(=C\c3ccccc3)c(=O)n12 (stereo not drawn) in the assay.
Output: yes

Task: Which outcome was assigned to CCCCCCC1N=C(N)N=C(N)N1c1ccc(Cl)cc1 (stereo not drawn) in this test?
Output: no

Task: Please let me know the test result on file for COc1ccc(NC(=O)O[C@H]2[C@H](O[C@H]3[C@@H](O)COC(O[C@H]4C[C@H]5[C@@H]6CC=C7C[C@@H](O)CC[C@]7(C)[C@H]6CC[C@]5(C)[C@H]4[C@H](C)C(=O)CCC(C)C)[C@@H]3OC(C)=O)OC[C@@H](O)[C@@H]2O)cc1 (stereo partly drawn) .
Output: yes

Task: Please indicate how the test categorized `Cc1cc2nc3c4ccccc4n(CCN(C)C)c3nc2cc1C` .
Output: no

Task: Can you look up the reported call for `CC(=O)N[C@@H](Cc1ccc(OP(=O)(O)O)cc1)C(=O)N[C@H]1CCC(=O)N2CCC[C@@H](C(=O)NCc3ccc(O)cc3)N2C1=O` for me?
Output: no

Task: Called result for `COc1cc(/C=C/C(=O)c2ccc(Nc3nc(Nc4ccccc4)nc(Nc4ccc(Cl)cc4)n3)cc2)cc(OC)c1OC`
Output: no

Task: For `N#CC[C@H](C1CCCC1)n1cc(-c2ncnc3[nH]ccc23)cn1` , what call appears in the results of this test?
Output: no

Task: So what was the verdict on CC(C)CC(NC(=O)OC(C)(C)C)C(=O)NC(CCC(=O)OCc1ccccc1)C(N)=O (stereo not drawn) (Boc-Leu-Glu(OBn)-NH2; configuration not given here) in this test?
Output: no

###

system: RPMI-8226 leukemia; test: NCI tumour cell line growth inhibition, 48 h
Grouping rule (TGI): A (below 5 µM), B (5 µM to below 20 µM), C (20 µM or more)

Task: Would you mind sorting `O=c1cc(-c2ccccc2Cl)[nH]c2cc3c(cc12)OCO3` into the appropriate category?
Output: A

Task: // return the class label for `O=[N+]([O-])c1ccc(-c2ccccc2)c([As](=O)(O)O)c1`
Output: C

Task: GET /class?item= COc1cc(C2C(C#N)=C(N)Oc3cc4c(cc32)OCO4)cc2c1OCO2 (stereo not given)
Output: C

Task: Lab note: which band did `CN(C)CCOc1nc2ccccc2c2c1-c1ccc(Cl)cc1C2=O` land in?
Output: A

Task: Sort CC(O)=NC(Cc1ccc2ccccc2c1)C(O)=NC(Cc1ccc(Cl)cc1)C(O)=NC(Cc1c[nH]c2ccccc12)C(O)=NC(CO)C(O)=NC(Cc1ccc(O)cc1)C(O)=NC(CCCN=C(N)N)C(O)=NC(CC(C)C)C(O)=NC(CCCN=C(N)N)C(=O)N1CCCC1C(O)=NC(C)C(=N)O (stereo not given) into one of the categories.
Output: C

Task: Which TGI category applies to `N#CSCC(=O)c1ccc(Cl)cc1` here?
Output: A

Task: Entry `CC(=O)O/C=C\OC1CCCC1` belongs to which category?
Output: C

Task: Returns: class label. Input: `FC(F)(F)C1=NC(=NNc2nnc(-c3ccccc3)c(-c3ccccc3)n2)N=C(C(F)(F)F)C1`
Output: C

Task: Please let me know in which category the item `COc1ccc2[nH]c3c(C)c4cnccc4c(C)c3c2c1` belongs.
Output: B

Task: Dear colleague, I would appreciate it if you could identify the bin for `Cc1cc2c(cc1C)[n+]([O-])c(-c1c(Cl)cccc1Cl)c(N)[n+]2[O-]` and reply at your convenience.
Output: C

Task: Exam item: assign `CCCCCCCCCC(=O)CC(=O)c1c(O)cc(O)cc1O` to the correct category.
Output: C

Task: Record CCOC(=O)CCC(NC(=O)c1ccc(Oc2nc3ccccc3nc2C(=O)OCC)cc1)C(=O)OCC (stereo not given) — which class?
Output: C

Task: Hi, small favor: classify OC(c1ccccc1)c1c(-c2ccccc2)oc(-c2ccccc2)c1C(O)c1ccccc1 (stereo not given) by its TGI when you get a moment.
Output: B

Task: Returns: class label. Input: `O=c1c2ncn(CCCl)c2n(-c2ccccc2)c(=S)n1-c1ccccc1`
Output: C

Task: # bin label for `O=C(NO)c1cnc(N2CCN(S(=O)(=O)c3ccc4ccccc4c3)CC2)nc1`
Output: B

Task: Which category does the recorded TGI put `N#CC[C@H](C1CCCC1)n1cc(-c2ncnc3[nH]ccc23)cn1` in?
Output: C

Task: Which bin should I file `COC(=O)Nc1nc2ccc(Sc3ccccc3)cc2[nH]1` under?
Output: C

Task: Form field 'band' for COC(=O)C1=Cc2c(OC)cc(OC)c(OC)c2[C@H](c2cc(OC)c(OC)cc2OC)C1C(=O)OC (stereo not given in full)
Output: C
